# Test system: Providencia rettgeri ATCC 9250
# procedure-summary: minimal inhibitory concentration, two-fold agar dilution
# Assay type: cell-based
# condition-description: ATCC9250, Muller-Hinton agar, 37°C, 20 hours, read-out: MIC values against the standard strains
test-readout: MIC

Sample answers from the record:
{"molecule": "C[n+]1cc(-c2ccccc2)c(N)nc1SCC1=C(C(=O)[O-])N2C(=O)[C@@H](NC(=O)/C(=N\\OC(C)(C)C(=O)O)c3csc(N)n3)[C@H]2SC1 [Example 21]", "tested-on": "Providencia rettgeri ATCC 9250", "test-readout": "MIC", "reported": "≤ 0.008 µg/mL"}
{"molecule": "C[C@@H](O/N=C(\\C(=O)N[C@@H]1C(=O)N2C(C(=O)[O-])=C(CSc3nc(N)c(N)c(N)[n+]3C)CS[C@H]12)c1csc(N)n1)C(=O)O [Example 82-b]", "tested-on": "Providencia rettgeri ATCC 9250", "test-readout": "MIC", "reported": "≤ 0.008 µg/mL"}
{"molecule": "C[n+]1c(SCC2=C(C(=O)[O-])N3C(=O)[C@@H](NC(=O)/C(=N\\O)c4csc(N)n4)[C@H]3SC2)nc(N)c(N)c1N [Example 9]", "tested-on": "Providencia rettgeri ATCC 9250", "test-readout": "MIC", "reported": "≤ 0.008 µg/mL"}
{"molecule": "CC[n+]1c(SCC2=C(C(=O)[O-])N3C(=O)[C@@H](NC(=O)/C(=N\\OC(C)(C)C(=O)O)c4csc(N)n4)[C@H]3SC2)nc(N)c(N)c1N [Example 11]", "tested-on": "Providencia rettgeri ATCC 9250", "test-readout": "MIC", "reported": "0.063 µg/mL"}
{"molecule": "CCO/N=C(\\C(=O)N[C@@H]1C(=O)N2C(C(=O)[O-])=C(CSc3nc(N)c4cccnc4[n+]3C)CS[C@H]12)c1csc(N)n1 [Example 31]", "tested-on": "Providencia rettgeri ATCC 9250", "test-readout": "MIC", "reported": "0.016 µg/mL"}

Request: Query (molecule): CCO/N=C(\C(=O)N[C@@H]1C(=O)N2C(C(=O)[O-])=C(CSc3nc(N)c(N)c(N)[n+]3C)CS[C@H]12)c1nsc(N)n1 [Example 5] ; field requested: MIC
Result: ≤ 0.008 µg/mL

Request: Quick one: CCO/N=C(\C(=O)N[C@@H]1C(=O)N2C(C(=O)[O-])=C(CSc3nc(N)cc[n+]3N)CS[C@H]12)c1csc(N)n1 [Example 42]
Result: 0.063 µg/mL

Request: Quick one: CO/N=C(\C(=O)N[C@@H]1C(=O)N2C(C(=O)[O-])=C(CSc3nc(N)c(N)c(N)[n+]3C)CS[C@H]12)c1csc(N)n1 [Example 7]
Result: ≤ 0.008 µg/mL

----------
# Test system: Shigella sonnei ATCC 11060
# procedure-summary: minimal inhibitory concentration, two-fold agar dilution
# Format: cell-based
# condition-description: ATCC11060, Muller-Hinton agar, 37°C, 20 hours, read-out: MIC values against the standard strains
# Description: These MIC values were taken by employing a two-fold dilution method: that is, two-fold serial dilutions of each of the test compounds were made and dispersed in a Muller-Hinton agar medium; 2µl of the standard test strain which had the 10⁷ CFU(Colony Forming Unit) per ml was inoculated on the medium; and these were incubated at 37°C for 20 hours.
test-readout: MIC (µg/mL)
The response must be a number in µg/mL with no trailing unit.

{"compound": "C[n+]1ccc(N)nc1SCC1=C(C(=O)[O-])N2C(=O)[C@@H](NC(=O)/C(=N\\O)c3csc(N)n3)[C@H]2SC1 [Example 10]", "tested-on": "Shigella sonnei ATCC 11060", "MIC, µg/mL": 1}

Request: Query (compound): CCO/N=C(\C(=O)N[C@@H]1C(=O)N2C(C(=O)[O-])=C(CSc3nc(N)cc(OC)[n+]3C)CS[C@H]12)c1csc(N)n1 [Example 18] ; field requested: MIC
Result: 0.25

Request: Quick one: CCO/N=C(\C(=O)N[C@@H]1C(=O)N2C(C(=O)[O-])=C(CSc3nc(N)c(N)c(N)[n+]3CC)CS[C@H]12)c1nsc(N)n1 [Example 15]
Result: 0.25

Request: Quick one: CCO/N=C(\C(=O)N[C@@H]1C(=O)N2C(C(=O)[O-])=C(CSc3nc(N)cc(OCC(=O)O)[n+]3C)CS[C@H]12)c1csc(N)n1 [Example 19]
Result: 0.063

Request: Quick one: CCO/N=C(\C(=O)N[C@@H]1C(=O)N2C(C(=O)[O-])=C(CSc3nc(N)cc[n+]3CC)CS[C@H]12)c1nsc(N)n1 [Example 16]
Result: 0.5

Request: Quick one: CCO/N=C(\C(=O)N[C@@H]1C(=O)N2C(C(=O)[O-])=C(CSc3nc(N)c(C(=O)O)c[n+]3C)CS[C@H]12)c1csc(N)n1 [Example 25]
Result: 0.063

----------
# Tested on: Escherichia coli ATCC 10536
# procedure-summary: minimal inhibitory concentration, two-fold agar dilution
# Type: cell-based
# condition-description: ATCC10536, Muller-Hinton agar, 37°C, 20 hours, read-out: MIC values against the standard strains
test-readout: MIC
# do not omit the unit; it follows the number

Sample answers from the record:
{"test-smiles": "CN(C)c1cc(N)nc(SCC2=C(C(=O)[O-])N3C(=O)[C@@H](NC(=O)/C(=N\\OC(C)(C)C(=O)O)c4csc(N)n4)[C@H]3SC2)[n+]1C", "MIC": "0.063 mg/L"}
{"test-smiles": "Cc1c[n+](N)c(SCC2=C(C(=O)[O-])N3C(=O)[C@@H](NC(=O)/C(=N\\OC(C)(C)C(=O)O)c4csc(N)n4)[C@H]3SC2)nc1N", "MIC": "0.063 mg/L"}

Request: Query (compound): CCO/N=C(\C(=O)N[C@@H]1C(=O)N2C(C(=O)[O-])=C(CSc3nc(N)c4ccccc4[n+]3C)CS[C@H]12)c1csc(N)n1 ; field requested: MIC
Result: 0.13 mg/L

Request: Quick one: CNc1cc(N)nc(SCC2=C(C(=O)[O-])N3C(=O)[C@@H](NC(=O)/C(=N\OC(C)(C)C(=O)O)c4csc(N)n4)[C@H]3SC2)[n+]1C
Result: 0.063 mg/L

Request: Quick one: CCO/N=C(\C(=O)N[C@@H]1C(=O)N2C(C(=O)[O-])=C(CSc3nc(N)c(N)c(N)[n+]3CC)CS[C@H]12)c1csc(N)n1
Result: 0.063 mg/L

Request: Quick one: COc1cc(N)nc(SCC2=C(C(=O)[O-])N3C(=O)[C@@H](NC(=O)/C(=N\OC(C)(C)C(=O)O)c4csc(N)n4)[C@H]3SC2)[n+]1C
Result: 0.063 mg/L

Request: Quick one: CCO/N=C(\C(=O)N[C@@H]1C(=O)N2C(C(=O)[O-])=C(CSc3nc(N)c(C(=O)O)c[n+]3C)CS[C@H]12)c1csc(N)n1
Result: 0.031 mg/L

----------
Listed here are molecules together with their documented MIC.
# Test system: Staphylococcus epidermidis ATCC 12228
# procedure-summary: minimal inhibitory concentration, two-fold agar dilution
# Type: cell-based
# condition-description: ATCC12228, Muller-Hinton agar, 37°C, 20 hours, read-out: MIC values against the standard strains
The response must be a number in µg/mL with no trailing unit.

Sample answers from the record:
{"test-smiles": "CCO/N=C(\\C(=O)N[C@@H]1C(=O)N2C(C(=O)[O-])=C(CSc3nc(N)c(N)c(N)[n+]3CC)CS[C@H]12)c1csc(N)n1", "tested-on": "Staphylococcus epidermidis ATCC 12228", "test-readout": "MIC", "reported": 0.13}
{"test-smiles": "CNc1cc(N)nc(SCC2=C(C(=O)[O-])N3C(=O)[C@@H](NC(=O)/C(=N\\OC(C)(C)C(=O)O)c4csc(N)n4)[C@H]3SC2)[n+]1C", "tested-on": "Staphylococcus epidermidis ATCC 12228", "test-readout": "MIC", "reported": 2}
{"test-smiles": "CCO/N=C(\\C(=O)N[C@@H]1C(=O)N2C(C(=O)[O-])=C(CSc3nc(N)cc[n+]3C)CS[C@H]12)c1csc(N)n1", "tested-on": "Staphylococcus epidermidis ATCC 12228", "test-readout": "MIC", "reported": 0.13}
{"test-smiles": "C[n+]1c(SCC2=C(C(=O)[O-])N3C(=O)[C@@H](NC(=O)/C(=N\\OC(C)(C)C(=O)O)c4csc(N)n4)[C@H]3SC2)nc(N)c2ccoc21", "tested-on": "Staphylococcus epidermidis ATCC 12228", "test-readout": "MIC", "reported": 2}
{"test-smiles": "CC[C@@H](O/N=C(\\C(=O)N[C@@H]1C(=O)N2C(C(=O)[O-])=C(CSc3nc(N)cc[n+]3N)CS[C@H]12)c1csc(N)n1)C(=O)O", "tested-on": "Staphylococcus epidermidis ATCC 12228", "test-readout": "MIC", "reported": 2}

Next molecule, MIC to be filled in.
Request: Query (molecule): Nc1cc[n+](N)c(SCC2=C(C(=O)[O-])N3C(=O)[C@@H](NC(=O)/C(=N\OCC(=O)O)c4csc(N)n4)[C@H]3SC2)n1 ; field requested: MIC
Result: 4

Value source: patent EP0584797A2
